# experimental-details: In vivo pharmacokinetics in rat plasma (UPLC-MS/MS, NCA)
# Design: species or system Sprague-Dawley (SD) rats
# assay-conditions: male, Sprague-Dawley, plasma, ip, 100 ug/kg, intraperitoneal
readout-label: Cmax
The number alone won't do; follow it with the unit.

Q: For O=C(NCc1ccc(O)cc1)C1C(c2ccccc2)C(c2ccccc2)=NN1c1ccccc1 (stereo not shown) , what is its reported Cmax?
A: 405 ng/mL

* * *

# experimental-details: In vivo pharmacokinetics in rat plasma (UPLC-MS/MS, NCA)
# Parameters: species or system Sprague-Dawley (SD) rats
# assay-conditions: male, Sprague-Dawley, plasma, ip, 50 ug/kg, intraperitoneal, 50 μg/kg, read-out: elimination half-life in plasma (converted)
readout-label: half-life
The number alone won't do; follow it with the unit.

Q: For O=C(NCc1ccc(O)cc1)C1C(c2ccccc2)C(c2ccccc2)=NN1c1ccccc1 (stereo not shown) , what is its reported half-life?
A: 289 min
